Assay: BSK_4H_SRB: Viability Assessment in the BioMAP Diversity Plus: 4H Assay (AID 2283027);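 also: cells exposed to compound for 24 h before staining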
Details: primary human endothelial cells (HUVEC)
Calls of active or inactive are those of the source. The calls were made as follows: active = hit-call score of the fitted dose curve at least 0.9, where 1 is the maximum; inactive = score below 0.9.
Possible outcomes: True (active), False (inactive)

| chemical.smiles | classification |
| --- | --- |
| Cc1ccc(N)cc1O | False |
| CCN(C(=O)c1cc(C)cc(OC[C@H](C)Nc2ccncc2)c1)C(C)C | False |
| C[C@](N)(Cc1ccc(O)c(O)c1)C(=O)O | False |
| O=P(OC(CCl)CCl)(OC(CCl)CCl)OC(CCl)CCl | False |
| CC[C@H]1CC[C@H](NCc2cc3c(cc2OC)[C@H]2C[C@H]2C(=O)N3C)[C@H](c2ccccc2)N1 | False |
| Nc1cccc(N)c1 | False |
| Oc1ccc2c(c1)-c1ccccc1C2 | True |

* * *

Read-out: CD40, CD40 (gene 958)
Assay: BSK_SAg_CD40: BioMAP Diversity Plus: SAg Assay for CD40 Biomarker Activity (AID 2283088)
Conditions: primary human HUVEC with PBMC; actives raise or lower the signal
Active and inactive are the calls of the source. Rule for the calls: active = hit-call score of the fitted dose curve at least 0.9, where 1 is the maximum; inactive = score below 0.9.
Possible outcomes: active, inactive

| compound | classification |
| --- | --- |
| COc1ccc(/C=C/S(=O)(=O)NC(=O)c2ccc(C)cc2Cl)cc1 | active |
| CC(=O)OCCC(C)C | inactive |
| Nc1nc2ncc(CNc3ccc(C(=O)N[C@@H](CCC(=O)O)C(=O)O)cc3)nc2c(=O)[nH]1 | inactive |
| CCC(C)(C)C(=O)O[C@H]1C[C@@H](C)C=C2C=C[C@H](C)[C@H](CC[C@@H]3C[C@@H](O)CC(=O)O3)[C@H]21 | active |
| CC(C)c1cccc(C(C)C)c1N1C(=O)c2ccc(O)cc2C1=O | active |
| CN(C)c1ccc(Cc2ccc(N(C)C)cc2)cc1 | inactive |
| CC[C@H]1OC(=O)[C@H](C)[C@@H](O[C@H]2C[C@@](C)(OC)[C@@H](O)[C@H](C)O2)[C@H](C)[C@@H](O[C@@H]2O[C@H](C)C[C@H](N(C)C)[C@H]2O)[C@](C)(O)C[C@@H](C)C(=O)[C@H](C)[C@@H](O)[C@]1(C)O | inactive |
| COC(=O)CC(=O)OC | inactive |
| Oc1ccc2c(c1)-c1ccccc1C2 | active |
| CC[C@H](C)C(=O)O[C@H]1C[C@@H](C)C=C2C=C[C@H](C)[C@H](CC[C@@H]3C[C@@H](O)CC(=O)O3)[C@H]21 | active |
| CC(C)CC(C)(O)C#CC(C)(O)CC(C)C (centres undefined) | inactive |
| CC/C(=C\C(=N/O)C(N)=O)C(C)[N+](=O)[O-] (centres undefined) | inactive |
| CC[C@H]1CC[C@H](NCc2cc3c(cc2OC)[C@H]2C[C@H]2C(=O)N3C)[C@H](c2ccccc2)N1 | inactive |
| CCCN(C1CCN(C(=O)C2CCNCC2)CC1)[C@@H]1CCc2ccc(OC)cc2C1 | inactive |
| Nc1cccc(N)c1 | inactive |
| CCOc1cccc(-n2cc(C(=O)N3CCN(c4cc(C(=O)O)c5ccccc5c4)CC3)nc2-c2ccc(C)cc2)c1 | active |
| COc1ccc(-n2nc(C(F)F)cc2-c2ccc(S(C)=O)cc2)cc1 (centres undefined) | inactive |
| O=C1CCCCCN1 | inactive |
| CC(C)CCCCCCOC(=O)c1ccc(C(=O)OCCCCCCC(C)C)c(C(=O)OCCCCCCC(C)C)c1 | inactive |
| COC(=O)c1ccccc1O | inactive |
| C1N2CN3CN1CN(C2)C3 | inactive |
| Cc1ccc(C)c(O)c1 | inactive |
| CCCCCCCCCCCCc1ccccc1 | active |
| CCOC(=O)c1ccc(C2CCC(NC[C@H](O)COc3ccc(O)c(NS(C)(=O)=O)c3)CC2)cc1 (some centres undefined) | inactive |
